system: Staphylococcus epidermidis; assay: Antibacterial activity against Staphylococcus epidermidis ATCC 12228 after 18 hrs by broth microdilution method; type: functional; conditions: ATCC 12228, 18 h
experimental-endpoint: MIC (µg/mL)
Expressed in µg/mL, but write only the number.

Known results for compounds:
O=C(O)c1cn(C2CC2)c2cc(N3CCNCC3)c(F)cc2c1=O
0.25
CC(NO)c1c[nH]c2ccccc12 (centres undefined)
64
CC(C)CC(NO)c1c[nH]c2ccccc12 (centres undefined)
32
Cl.Cl.NCC(NO)c1c[nH]c2cc(F)ccc12 (centres undefined)
16
CC(C)(C)OC(=O)NCC(c1c[nH]c2ccc(Cl)cc12)N(O)Cc1ccccc1 (centres undefined)
16
CC(C)(C)OC(=O)NCC(c1c[nH]c2ccc(I)cc12)N(O)Cc1ccccc1 (centres undefined)
8
CC(C)(C)OC(=O)NCC(NO)c1c[nH]c2ccc(Cl)cc12 (centres undefined)
64
Cl.Cl.NCC(NO)c1c[nH]c2ccc(I)cc12 (centres undefined)
16
CC(NO)c1c[nH]c2ccc(Cl)cc12 (centres undefined)
16
Cl.Cl.Cl.NCC(NO)c1c[nH]c2cc(Cl)ccc12 (centres undefined)
16

[in] Staphylococcus epidermidis / MIC / CC(C)CC(c1c[nH]c2ccc(F)cc12)N(O)Cc1ccccc1 (centres undefined) : value?
[out] 64

[in] Staphylococcus epidermidis / MIC / Cl.Cl.NCC(NO)c1c[nH]c2ccc(Br)cc12 (centres undefined) : value?
[out] 8

[in] Staphylococcus epidermidis / MIC / Cl.Cl.Cl.NCC(NO)c1c[nH]c2ccc(Cl)cc12 (centres undefined) : value?
[out] 16

[in] Staphylococcus epidermidis / MIC / CC(NO)c1c[nH]c2ccc(I)cc12 (centres undefined) : value?
[out] 32

[in] Staphylococcus epidermidis / MIC / CC(C)(C)OC(=O)NCC(NO)c1c[nH]c2ccc(I)cc12 (centres undefined) : value?
[out] 64

[in] Staphylococcus epidermidis / MIC / CC(C)CC(c1c[nH]c2ccccc12)N(O)Cc1ccccc1 (centres undefined) : value?
[out] 16

###

system: Staphylococcus epidermidis; test: Antibacterial activity against Staphylococcus epidermidis CIP 103627 after 18 hrs by broth microdilution method; assay type: functional; conditions: CIP 103627, 18 h
MIC strictly under 60 µg/mL means met; at 60 µg/mL or over means not met.

CC(C)(C)OC(=O)NCC(NO)c1c[nH]c2ccc(Br)cc12 (stereo unspecified)
not met
CC(NO)c1c[nH]c2ccc(F)cc12 (stereo unspecified)
not met
CC(c1c[nH]c2ccc(Br)cc12)N(O)Cc1ccccc1 (stereo unspecified)
not met
O=C(O)c1cn(C2CC2)c2cc(N3CCNCC3)c(F)cc2c1=O
met
CC(c1c[nH]c2ccccc12)N(O)Cc1ccccc1 (stereo unspecified)
not met

[in] Would you kindly verify if MIC of CC(C)CC(NO)c1c[nH]c2ccc(Cl)cc12 (stereo unspecified) is strictly less than 60 µg/mL?
[out] met

[in] Would you kindly verify if MIC of CC(C)(C)OC(=O)NCC(c1c[nH]c2ccc(I)cc12)N(O)Cc1ccccc1 (stereo unspecified) is strictly less than 60 µg/mL?
[out] met

[in] Would you kindly verify if MIC of Cl.Cl.NCC(NO)c1c[nH]c2cc(Br)ccc12 (stereo unspecified) is strictly less than 60 µg/mL?
[out] met

[in] Would you kindly verify if MIC of CC(NO)c1c[nH]c2ccc(Br)cc12 (stereo unspecified) is strictly less than 60 µg/mL?
[out] not met

[in] Would you kindly verify if MIC of CC(C)(C)OC(=O)NCC(c1c[nH]c2cccc(Br)c12)N(O)Cc1ccccc1 (stereo unspecified) is strictly less than 60 µg/mL?
[out] not met

[in] Would you kindly verify if MIC of CC(C)CC(c1c[nH]c2ccc(I)cc12)N(O)Cc1ccccc1 (stereo unspecified) is strictly less than 60 µg/mL?
[out] not met

###

system: Staphylococcus aureus; experiment: Antibacterial activity against Staphylococcus aureus ATCC 6538 after 18 hrs by broth microdilution method; assay type: functional; details: ATCC 6538, 18 h
Property: MIC; scope: individual molecules
Expressed in µg/mL, but write only the number.

Cl.Cl.Cl.NCC(NO)c1c[nH]c2ccc(Cl)cc12 (stereo unspecified)
16
CC(NO)c1c[nH]c2ccc(I)cc12 (stereo unspecified)
64
Cl.Cl.NCC(NO)c1c[nH]c2cc(F)ccc12 (stereo unspecified)
16

[in] For CC(C)(C)OC(=O)NCC(NO)c1c[nH]c2ccc(I)cc12 (stereo unspecified) , what is its reported MIC?
[out] 32

[in] For CC(C)(C)OC(=O)NCC(NO)c1c[nH]c2cccc(Br)c12 (stereo unspecified) , what is its reported MIC?
[out] 128

[in] For CC(C)CC(NO)c1c[nH]c2ccc(Cl)cc12 (stereo unspecified) , what is its reported MIC?
[out] 16

###

tested on: Streptococcus pneumoniae; assay: Antibacterial activity against Streptococcus pneumoniae ATCC 49619 after 18 hrs by broth microdilution method; assay type: functional; conditions: ATCC 49619, 18 h
experimental-endpoint: MIC (µg/mL)
Expressed in µg/mL, but write only the number.

Known results for compounds:
Cl.Cl.NCC(NO)c1c[nH]c2ccc(Br)cc12 (stereo unspecified)
64
Cl.Cl.NCC(NO)c1c[nH]c2cccc(Br)c12 (stereo unspecified)
128
CC(C)(C)OC(=O)NCC(c1c[nH]c2ccc(Cl)cc12)N(O)Cc1ccccc1 (stereo unspecified)
64
Cl.Cl.NCC(NO)c1c[nH]c2cc(Br)ccc12 (stereo unspecified)
64
Cl.Cl.NCC(NO)c1c[nH]c2ccc(I)cc12 (stereo unspecified)
64

[in] Streptococcus pneumoniae / MIC / CO/N=C(\C(=O)N[C@@H]1C(=O)N2C(C(=O)O)=C(COC(C)=O)CS[C@H]12)c1csc(N)n1 [CEFOTAXIME] : value?
[out] 0.125

[in] Streptococcus pneumoniae / MIC / CC(C)(C)OC(=O)NCC(c1c[nH]c2ccc(I)cc12)N(O)Cc1ccccc1 (stereo unspecified) : value?
[out] 64

[in] Streptococcus pneumoniae / MIC / Cl.Cl.Cl.NCC(NO)c1c[nH]c2cc(Cl)ccc12 (stereo unspecified) : value?
[out] 64

###

test system: Staphylococcus epidermidis; test: Antibacterial activity against Staphylococcus epidermidis ATCC 12228 after 18 hrs by broth microdilution method; format: functional; details: ATCC 12228, 18 h
experimental-endpoint: MIC (µg/mL)
Expressed in µg/mL, but write only the number.

Known results for compounds:
CC(C)(C)OC(=O)NCC(c1c[nH]c2ccc(Br)cc12)N(O)Cc1ccccc1 (stereo unspecified)
16
CC(C)(C)OC(=O)NCC(NO)c1c[nH]c2cc(Br)ccc12 (stereo unspecified)
64
Cl.Cl.NCC(NO)c1c[nH]c2cccc(Br)c12 (stereo unspecified)
32
CC(NO)c1c[nH]c2ccc(F)cc12 (stereo unspecified)
64
CC(C)CC(NO)c1c[nH]c2ccc(F)cc12 (stereo unspecified)
32

[in] Staphylococcus epidermidis / MIC / CC(C)(C)OC(=O)NCC(c1c[nH]c2cc(Cl)ccc12)N(O)Cc1ccccc1 (stereo unspecified) : value?
[out] 16

[in] Staphylococcus epidermidis / MIC / CC(C)(C)OC(=O)NCC(NO)c1c[nH]c2cccc(Br)c12 (stereo unspecified) : value?
[out] 128

###

test system: Staphylococcus aureus; test: Antibacterial activity against Staphylococcus aureus ATCC 6538 after 18 hrs by broth microdilution method; type: functional; conditions: ATCC 6538, 18 h
experimental-endpoint: MIC (µg/mL)
Expressed in µg/mL, but write only the number.

CC(C)(C)OC(=O)NCC(c1c[nH]c2cc(Br)ccc12)N(O)Cc1ccccc1 (stereo unspecified)
8
CC(C)(C)OC(=O)NCC(c1c[nH]c2ccc(Cl)cc12)N(O)Cc1ccccc1 (stereo unspecified)
16
CC(NO)c1c[nH]c2ccc(Cl)cc12 (stereo unspecified)
32
Cl.Cl.NCC(NO)c1c[nH]c2ccc(F)cc12 (stereo unspecified)
8
Cl.Cl.NCC(NO)c1c[nH]c2ccccc12 (stereo unspecified)
32

[in] For CC(C)CC(c1c[nH]c2ccccc12)N(O)Cc1ccccc1 (stereo unspecified) , what is its reported MIC?
[out] 32

[in] For CC(NO)c1c[nH]c2ccc(F)cc12 (stereo unspecified) , what is its reported MIC?
[out] 64

[in] For CC(C)(C)OC(=O)NCC(c1c[nH]c2cc(Cl)ccc12)N(O)Cc1ccccc1 (stereo unspecified) , what is its reported MIC?
[out] 16

###

Property: MIC; scope: individual compounds
tested on: Enterobacter cloacae; test: microbe, parasite or virus in culture; conditions: ATCC 13047, 18 h
Description: Antibacterial activity against Enterobacter cloacae ATCC 13047 after 18 hrs by broth microdilution method
Expressed in µg/mL, but write only the number.

Cl.Cl.NCC(NO)c1c[nH]c2ccc(Br)cc12 (centres undefined)
64
Cl.Cl.NCC(NO)c1c[nH]c2ccc(I)cc12 (centres undefined)
64
Cl.Cl.Cl.NCC(NO)c1c[nH]c2ccc(Cl)cc12 (centres undefined)
128
Cl.Cl.NCC(NO)c1c[nH]c2ccc(F)cc12 (centres undefined)
32

[in] For Cl.Cl.NCC(NO)c1c[nH]c2cc(F)ccc12 (centres undefined) , what is its reported MIC?
[out] 64

[in] For Cl.Cl.NCC(NO)c1c[nH]c2cc(Br)ccc12 (centres undefined) , what is its reported MIC?
[out] 64

[in] For Cl.Cl.Cl.NCC(NO)c1c[nH]c2cc(Cl)ccc12 (centres undefined) , what is its reported MIC?
[out] 64
